Assay: Righting reflex experiment on mice
Details: both, ICR, mouse, in vivo, iv
measured_attribute: LD50 (mg/kg)
Note: unit mg/kg is implicit; provide only the numeric part.

Kindly indicate its recorded LD50. Item: CC(C)c1cccc([C@@H](C)C2CC2)c1O [Compound 8]
43.6

Values were extracted from patent US10729666B2.
